B1: LOXL2 (parent)
chain: HISSCKLGPQVSLDPMKNVTCENG

- Variants of: B1
- assay-method-text: protein stability index of a GFP-peptide fusion (GPS, HEK-293T) (PSI 1-6); higher = more stable;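 also: lentivirally expressed fusions sorted by FACS into six bins by GFP to DsRed ratio, PSI derived from sequencing read proportions per bin multiplied by bin number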
- run-conditions: c terminus: a fixed tail appended
Quick list: protein stability index per entry.
Give the figure by itself; no unit, no explanation.

Example variants with recorded protein stability index:
| sequence-change | protein stability index |
| --- | --- |
| V19S | 4.38 |
| C21A | 4.41 |
| P15H | 4.02 |
| E22M | 2.9 |
| H1A | 3.87 |
| P9G | 3.51 |
| P15E | 4.64 |
| N18S | 3.2 |

Q. So what does the record say about protein stability index for `V19Y` ?
A. 3.76

Q. Then `P15V` ?
A. 3.88

Q. Then `Q10P` ?
A. 3.68

Hello, the source for this data is the supplement of paper PMC10567573, in case you need it.
